- measurement target: beta-catenin (human)
- Sequence (B6V8E6 146-665 limits assumed): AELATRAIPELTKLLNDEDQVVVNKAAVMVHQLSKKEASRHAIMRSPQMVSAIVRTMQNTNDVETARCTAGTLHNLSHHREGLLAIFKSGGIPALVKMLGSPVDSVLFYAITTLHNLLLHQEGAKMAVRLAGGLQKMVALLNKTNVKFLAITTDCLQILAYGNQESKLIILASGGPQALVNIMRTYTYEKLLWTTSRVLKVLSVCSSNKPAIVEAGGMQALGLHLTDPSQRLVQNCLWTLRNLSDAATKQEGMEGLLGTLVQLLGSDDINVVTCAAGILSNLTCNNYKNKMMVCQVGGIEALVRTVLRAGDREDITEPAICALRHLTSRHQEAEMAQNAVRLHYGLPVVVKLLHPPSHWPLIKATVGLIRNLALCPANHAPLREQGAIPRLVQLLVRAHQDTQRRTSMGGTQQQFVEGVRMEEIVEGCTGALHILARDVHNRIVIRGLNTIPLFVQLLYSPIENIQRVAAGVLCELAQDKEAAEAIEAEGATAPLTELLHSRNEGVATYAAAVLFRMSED
- test method notes: fluorescence polarization; bin >50 nM
*1 amine or outer side, *2 acyl side, *3 side chain or, on linkers, in order; H or OH if unused. Bridges are numbered along the chain shown (N, C = ends). Primed or numbered codes have the meaning given here. [ ]: non-standard residue; d: D form. B5(4) = 2-amino-2-(pent-4-en-1-yl)hept-6-enoic acid, stapled through each of its two olefin groups with other olefin-containing amino acid residues, O=C(C(CCCC=[*:3])(CCCC=[*:4])N[*:1])[*:2]; PyrS2″ = (S)-3-amino-1-((pent-4-en-1-yloxy)carbonyl)pyrrolidine-3-carboxylic acid (olefin stapling residue), C=CCCCOC(=O)N1CC[C@@](N[*:1])(C(=O)[*:2])C1; PyrS2(3) = (S)-3-amino-1-((pent-4-en-1-yloxy)carbonyl)pyrrolidine-3-carboxylic acid, olefin residue, C=CCCCOC(=O)N1CC[C@@](N[*:1])(C(=O)[*:2])C1; B5(3) = 2-amino-2-(pent-4-en-1-yl)hept-6-enoic acid, two olefin arms, C=CCCCC(CCCC=C)(N[*:1])C(=O)[*:2]; Phe(3-COOH) = N[C@@H](Cc1cccc(C(=O)O)c1)C(=O)O; 2F3MeF = Cc1cccc(C[C@H](N[*:1])C(=O)[*:2])c1F; Phe(2-Cl) = N[C@@H](Cc1ccccc1Cl)C(=O)O; Bta = N[C@@H](Cc1csc2ccccc12)C(=O)O; αAllylPro = C=CC[C@@]1(C(=O)O)CCCN1; BztA = aromatic amino acid residue; tBuAla = CC(C)(C)C[C@H](N)C(=O)O; Biphen33COOH = not defined here; 3Thi = N[C@@H](Cc1ccsc1)C(=O)O; Cha = N[C@@H](CC1CCCCC1)C(=O)O; PyrS2(4) = not defined here; hSer = N[C@@H](CCO)C(=O)O; TfeGA = not defined here; GlnR = not defined here; PL3 = not defined here; B5 = not defined here
Listing: IC50 of selected binders

These solved cases illustrate the format of a correct answer.
Reported IC50 for Ac-[PL3]D[tBuAla][B5]N[Phe(3-COOH)]SAFK[PyrS2″][3Thi][BztA][GlnR]A-NH2 (staple 1-4 (inferred); bridge 10-14; not fully specified (residue 10, bridges); printed as Ac-PL3-Asp-Npg-B5-Asn-3COOHF-Ser-Ala-Phe-Lys*3-PyrS2-3Thi-BztA-GlnR*3-Ala-NH2; reading uncertain; also: Lys10 and GlnR14 marked *3) [I-86] was < 200 nM

The recorded IC50 for Ac-[αAllylPro]D[tBuAla][B5(4)]D[TfeGA]FAFK[PyrS2″][2F3MeF][Bta][GlnR]A-NH2 (bridge 10-14; not fully specified (bridges); reading uncertain; also: Lys*3 and GlnR*3 marked *3) [I-123] is < 200 nM

Given item Ac-[PL3][hSer][tBuAla][B5]D[Phe(3-COOH)]SAFK[PyrS2″][3Thi][BztA][GlnR]A-NH2 (staple 1-4 (inferred); bridge 10-14; not fully specified (residue 10, bridges); printed as Ac-PL3-Hse-Npg-B5-Asp-3COOHF-Ser-Ala-Phe-Lys*3-PyrS2-3Thi-BztA-GlnR*3-Ala-NH2; reading uncertain; also: Lys10 and GlnR14 marked *3) [I-85] , the value recorded as its IC50 is < 200 nM

Per the records, this binder ( Ac-[PL3]D[tBuAla][B5]D[Phe(3-COOH)][Cha]AFK[PyrS2(4)][2F3MeF][Bta][GlnR]L-NH2 (staple 1-4; bridge 10-14; reading uncertain; also: PyrS2 tied into a staple, partner not placed, printed as Ac-PL3-Asp-Npg-B5-Asp-3COOHF-Cha-Ala-Phe-Lys*3-PyrS2-2F3MeF-BztA-GlnR*3-Leu-NH2) [I-111] ) has IC50 equal to < 200 nM

# input for lookup
IC50 in this record for Ac-[αAllylPro]D[tBuAla][B5(3)]D[Phe(3-COOH)]K(Biphen33COOH)AFL[PyrS2(3)][Phe(2-Cl)][Bta]K-NH2 (not fully specified (residue 6, bridges); printed as Ac-PL3-Asp-Npg-B5-Asp-3COOHF-[Biphen33COOH]Lys-Ala-Phe-Leu-PyrS2-2ClF-BztA-Lys-NH2; reading uncertain) [I-54] : < 200 nM

Each recorded value in this set is attributed to patent US20260207704A1.
